Test system: 621-102 (TSC2-deficient);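 note: renal angiomyolipoma cell lines screened in 384-well plates, viability normalized per plate to DMSO-treated cells, each plate carrying 50 nM rapamycin and 1 µM staurosporine controls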
Assay: relative viability vs DMSO (fraction); higher = less cytotoxic
Settings: 1.6 nM; serum: 0.1% FBS; 72 h
Recorded metric: relative viability
Give bare numbers.

Here is how some molecules turned out for relative viability.
{"Molecule": "CC(C)C[C@@H](C(=O)N[C@H](C(=O)OC1CCCC1)c1ccccc1)[C@H](O)C(=O)NO [CHR-2797]", "Recorded metric": "relative viability", "Value": 0.884}
{"Molecule": "Nc1nc(Cl)nc2c1ncn2[C@@H]1O[C@H](CO)[C@@H](O)[C@@H]1F [Clofarabine]", "Recorded metric": "relative viability", "Value": 0.905}
{"Molecule": "Nc1ncn([C@H]2C[C@H](O)[C@@H](CO)O2)c(=O)n1 [Decitabine]", "Recorded metric": "relative viability", "Value": 0.888}

We now examine a further molecule.
Value lookup for relative viability; key = Cc1[nH]c2ccccc2c1CCNCc1ccc(/C=C/C(=O)NO)cc1 [Panobinostat (LBH589)]
0.909
